# assay name: Chemical stability, ambient storage
# Type: physicochemical
# applied conditions: active ingredient in Professional Formulation 1, 17 Months (title: 14 Months)
measure name: 17 Months (% Change from Initial)

>>> experimental_result("COc1c(Cl)ccc(Cl)c1C(=O)O")
"+2.04%"
>>> experimental_result("Cc1c(C(=O)c2c[nH]n(C)c2=O)ccc(S(C)(=O)=O)c1C1=NOCC1")
"−4.79%"
>>> experimental_result("O=C(O)COc1ccc(Cl)cc1Cl")
"+2.71%"

# input Suppose we examine the molecule Cc1nn(-c2cc(NS(C)(=O)=O)c(Cl)cc2Cl)c(=O)n1C(F)F ; what 17 Months (% Change from Initial) value has been reported?
# output +3.60%

---

# assay name: Chemical stability, ambient storage
# Format: physicochemical
# applied conditions: active ingredient in Professional Formulation 2
# 16 Months (% Change from Initial) per entry
Supply the numeric figure in %, leaving out any unit text.

Sample answers from the record:
>>> experimental_result("COc1c(Cl)ccc(Cl)c1C(=O)O [Dicamba acid, 3,6-dichloro-2-methoxybenzoic acid]")
"−0.80"
>>> experimental_result("Cc1c(C(=O)c2c[nH]n(C)c2=O)ccc(S(C)(=O)=O)c1C1=NOCC1 [Topramazone]")
"−4.40"

Pending molecule:
# input Given O=C(O)COc1ccc(Cl)cc1Cl [2,4-D acid] , state its recorded 16 Months (% Change from Initial).
# output −2.02

---

# assay name: Chemical stability, accelerated 40° C. storage
# Assay type: physicochemical
# applied conditions: active ingredient in Professional Formulation 1; 42 days at 40° C.
Examples of compounds with documented 42 Days @ 40° C. (% Change from Initial) follow.
I only need the number, in %, no unit after it.

>>> experimental_result("COc1c(Cl)ccc(Cl)c1C(=O)O [Dicamba acid, 3,6-dichloro-2-methoxybenzoic acid]")
"−4.11"

# input Could you tell me which 42 Days @ 40° C. (% Change from Initial) is on file for Cc1c(C(=O)c2c[nH]n(C)c2=O)ccc(S(C)(=O)=O)c1C1=NOCC1 [Topramazone] ?
# output −3.89

---

# assay name: Chemical stability, accelerated 40° C. storage
# Type: physicochemical
# applied conditions: active ingredient in Ready-to-Use Formulation 2; 30 days at 40° C.
measure name: 30 Days @ 40° C. (% Change from Initial) (%)
Note: unit % is implicit; provide only the numeric part.

>>> experimental_result("Cc1nn(-c2cc(NS(C)(=O)=O)c(Cl)cc2Cl)c(=O)n1C(F)F")
"−0.67"

Then there is this molecule:
# input What value of measured 30 Days @ 40° C. (% Change from Initial) is listed for Cc1c(C(=O)c2c[nH]n(C)c2=O)ccc(S(C)(=O)=O)c1C1=NOCC1 ?
# output 0.00

---

# assay name: Chemical stability, accelerated 40° C. storage
# Type: physicochemical
# applied conditions: active ingredient in Consumer Formulation 3; 30 days at 40° C.
measure name: 30 Days @ 40° C. (% Change from Initial) (%)
Value expressed in %; do not type the unit.

Consider the reported 30 Days @ 40° C. (% Change from Initial) for these compounds:
>>> experimental_result("Cc1c(C(=O)c2c[nH]n(C)c2=O)ccc(S(C)(=O)=O)c1C1=NOCC1")
"−1.53"
>>> experimental_result("COc1c(Cl)ccc(Cl)c1C(=O)O")
0.00

# input What 30 Days @ 40° C. (% Change from Initial) value was documented for this compound, Cc1nn(-c2cc(NS(C)(=O)=O)c(Cl)cc2Cl)c(=O)n1C(F)F ?
# output 0.00

# input Next up: O=C(O)COc1ccc(Cl)cc1Cl
# output −0.21
